koff for assorted binders
Measured on: T1, human activated protein C (human, UniProt P04070 43-197; P04070 212-461)
T1 construct: In the plasma assays aPC is generated in human plasma with Protac; also called aPC; haPC
Assay remarks: Octet BLI, antibody on Protein A sensor, huAPC 3.13-50 nM, 1:1 model, 25 C, pH 7.4
Dear colleague, please return just the value in s⁻¹, with no unit written.

INSERT INTO assay_data (binder, endpoint_result) VALUES
  ('HAPC-14-1 (antibody, V domains shown, Whole IgG, backbone hIgG1; also called HPAC14-1) VH: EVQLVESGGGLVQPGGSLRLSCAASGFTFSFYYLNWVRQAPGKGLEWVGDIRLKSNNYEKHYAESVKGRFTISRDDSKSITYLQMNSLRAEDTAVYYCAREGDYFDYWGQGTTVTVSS VL: DIQLTQSPSSLSASVGDRVTITCRASESVDSFGATFMHWYQQKPGKAPKLLIYLASWLGSGVPSRFSGSGSGTDFTLTISSLQPEDFATYYCQQNNEDPYTFGQGTKLEIK', 0.00117);

Sure, the documented koff for Humanized antibody 14 (HAPC-14) (antibody, V domains shown, also called Humab001-14; NO; 14 antibody) VH: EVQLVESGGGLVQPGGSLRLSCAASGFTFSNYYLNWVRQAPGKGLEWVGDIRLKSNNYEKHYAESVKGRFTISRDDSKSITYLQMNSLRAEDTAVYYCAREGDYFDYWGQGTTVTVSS VL: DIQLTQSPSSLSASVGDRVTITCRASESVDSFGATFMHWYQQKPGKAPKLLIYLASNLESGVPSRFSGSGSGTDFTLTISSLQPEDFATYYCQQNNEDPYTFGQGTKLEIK is 0.0162

Lab note: HAPC-14-9 (antibody, V domains shown, Whole IgG, backbone hIgG1; also called HPAC 14-9) VH: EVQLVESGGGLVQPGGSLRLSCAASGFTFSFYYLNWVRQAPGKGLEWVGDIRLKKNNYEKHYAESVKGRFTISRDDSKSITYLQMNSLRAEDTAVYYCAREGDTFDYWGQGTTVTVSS VL: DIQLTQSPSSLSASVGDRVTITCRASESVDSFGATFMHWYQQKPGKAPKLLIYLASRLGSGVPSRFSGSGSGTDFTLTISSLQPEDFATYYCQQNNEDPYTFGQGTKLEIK gave koff of 0.00238
